B1: PCMTD2 (parent)
chain: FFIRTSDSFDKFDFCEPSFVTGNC

- Variants of: B1
- Experimental protocol: protein stability index of a GFP-peptide fusion (GPS, HEK-293T) (PSI 1-6); higher = more stable;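 note: lentivirally expressed fusions sorted by FACS into six bins by GFP to DsRed ratio, PSI derived from sequencing read proportions per bin multiplied by bin number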
- Details: c terminus: a fixed tail appended
Could you label it Satisfied if measured protein stability index is 2 or higher, and Not satisfied otherwise?

{"Residue string": "FFIRTSDSFDKFDFCEPSFETGNC [V20E]", "Discrete label": "Satisfied"}
{"Residue string": "FFIRTSDSFGKFDFCEPSFVTGNC [D10G]", "Discrete label": "Satisfied"}
{"Residue string": "SFIRTSDSFDKFDFCEPSFVTGNC [F1S]", "Discrete label": "Satisfied"}
{"Residue string": "FFSRTSDSFDKFDFCEPSFVTGNC [I3S]", "Discrete label": "Not satisfied"}
{"Residue string": "FFIRTSDSFDKQDFCEPSFVTGNC [F12Q]", "Discrete label": "Not satisfied"}
{"Residue string": "FFIRTSDSFDWFDFCEPSFVTGNC [K11W]", "Discrete label": "Satisfied"}
{"Residue string": "FFIETSDSFDKFDFCEPSFVTGNC [R4E]", "Discrete label": "Satisfied"}
{"Residue string": "FFIRTSDSFDKFDFCEPSFDTGNC [V20D]", "Discrete label": "Not satisfied"}
{"Residue string": "FFIRTSDSGDKFDFCEPSFVTGNC [F9G]", "Discrete label": "Satisfied"}
{"Residue string": "FFIRTSDSFDKFDFCEPSFRTGNC [V20R]", "Discrete label": "Satisfied"}
{"Residue string": "FFIRTGDSFDKFDFCEPSFVTGNC [S6G]", "Discrete label": "Satisfied"}
{"Residue string": "FFIDTSDSFDKFDFCEPSFVTGNC [R4D]", "Discrete label": "Satisfied"}
{"Residue string": "FFIRTSDSFDKFDFCEPSIVTGNC [F19I]", "Discrete label": "Satisfied"}
{"Residue string": "FFIRTSDSFDKFDFCEPSFVTGNN [C24N]", "Discrete label": "Not satisfied"}
{"Residue string": "FFIRTSDSFDKFDFCEPSFVTGGC [N23G]", "Discrete label": "Satisfied"}
{"Residue string": "FFIRTSDSFDKFDFCRPSFVTGNC [E16R]", "Discrete label": "Satisfied"}
{"Residue string": "FWIRTSDSFDKFDFCEPSFVTGNC [F2W]", "Discrete label": "Satisfied"}
{"Residue string": "FFIRTSDYFDKFDFCEPSFVTGNC [S8Y]", "Discrete label": "Satisfied"}
{"Residue string": "FFIRTSDSFDKFDFCEPSYVTGNC [F19Y]", "Discrete label": "Not satisfied"}
{"Residue string": "FFIRTVDSFDKFDFCEPSFVTGNC [S6V]", "Discrete label": "Satisfied"}
{"Residue string": "FFIRTSDSFDKFGFCEPSFVTGNC [D13G]", "Discrete label": "Satisfied"}
{"Residue string": "FFIRTSDSYDKFDFCEPSFVTGNC [F9Y]", "Discrete label": "Satisfied"}
{"Residue string": "FFIRTSDSFDKFDFCEPSFVTGTC [N23T]", "Discrete label": "Satisfied"}
{"Residue string": "FFIRTSDSFDKFDFCEPSFNTGNC [V20N]", "Discrete label": "Satisfied"}
{"Residue string": "FFIRTSDSFDKFDFNEPSFVTGNC [C15N]", "Discrete label": "Satisfied"}
{"Residue string": "FFISTSDSFDKFDFCEPSFVTGNC [R4S]", "Discrete label": "Satisfied"}
{"Residue string": "FFIRTSDSFDKFDDCEPSFVTGNC [F14D]", "Discrete label": "Satisfied"}
{"Residue string": "FFIRTSDSFDKFDFCEPSFVTFNC [G22F]", "Discrete label": "Not satisfied"}
{"Residue string": "FFIRTSDSFDKFDFCEPSFVNGNC [T21N]", "Discrete label": "Satisfied"}
{"Residue string": "FFIRTSDSEDKFDFCEPSFVTGNC [F9E]", "Discrete label": "Not satisfied"}
{"Residue string": "FFIRTSDSFDKFDFCEPSPVTGNC [F19P]", "Discrete label": "Not satisfied"}
{"Residue string": "FFIRTSDSFDKFDFCEPSEVTGNC [F19E]", "Discrete label": "Not satisfied"}
{"Residue string": "FFYRTSDSFDKFDFCEPSFVTGNC [I3Y]", "Discrete label": "Not satisfied"}
{"Residue string": "FFIRTSDSFDKFDFCEPSFYTGNC [V20Y]", "Discrete label": "Not satisfied"}
{"Residue string": "FFWRTSDSFDKFDFCEPSFVTGNC [I3W]", "Discrete label": "Satisfied"}
{"Residue string": "FFIRTSHSFDKFDFCEPSFVTGNC [D7H]", "Discrete label": "Not satisfied"}
{"Residue string": "FFIRTSDSFDKFDFEEPSFVTGNC [C15E]", "Discrete label": "Satisfied"}
{"Residue string": "FFDRTSDSFDKFDFCEPSFVTGNC [I3D]", "Discrete label": "Satisfied"}
{"Residue string": "FFIRTSDSFDKFDFCEPSFVTGYC [N23Y]", "Discrete label": "Not satisfied"}
{"Residue string": "FFIRTSDSFDKFDFCEPSMVTGNC [F19M]", "Discrete label": "Not satisfied"}
{"Residue string": "FFIRTSDSFDKCDFCEPSFVTGNC [F12C]", "Discrete label": "Satisfied"}
